Target sequence: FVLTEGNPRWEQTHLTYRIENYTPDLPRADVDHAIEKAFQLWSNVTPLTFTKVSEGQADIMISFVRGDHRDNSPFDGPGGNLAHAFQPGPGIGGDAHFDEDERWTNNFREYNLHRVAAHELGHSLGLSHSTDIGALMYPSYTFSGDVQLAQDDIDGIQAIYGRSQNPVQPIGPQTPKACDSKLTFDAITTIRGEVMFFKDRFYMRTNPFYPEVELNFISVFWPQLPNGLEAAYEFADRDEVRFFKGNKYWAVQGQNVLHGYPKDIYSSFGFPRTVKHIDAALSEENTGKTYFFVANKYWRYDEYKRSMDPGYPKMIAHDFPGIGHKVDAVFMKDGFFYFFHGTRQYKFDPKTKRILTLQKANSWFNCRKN
pIC50: −log10 of the molar value.
MEASUREMENT_KIND: pIC50

Answered examples (4):
- MOLECULE: "O=C(O)[C@@H]1[C@@H](Cn2nnc3ccc(C(F)(F)F)cc3c2=O)CC[C@H]1C(=O)c1ccc(OCCC2CCCCC2)cc1 (single isomer, unassigned)"
  pIC50: 5.20
- MOLECULE: "CCCCOc1ccc(C(=O)[C@@H]2CC[C@H](Cn3nnc4ccc(C(F)(F)F)cc4c3=O)[C@H]2C(=O)O)cc1 (single isomer, unassigned)"
  pIC50: 5.28
- MOLECULE: "O=C(O)[C@H]1[C@H](Cn2nnc3ccccc3c2=O)CC[C@@H]1C(=O)c1ccc(OCC2CCCC2)cc1 (racemic)"
  pIC50: 4.55
- MOLECULE: "O=C(O)[C@@H]1[C@@H](Cn2nnc3ccc(C(F)(F)F)cc3c2=O)CC[C@H]1C(=O)c1ccc(SCc2cccc(Cl)c2)cc1 (single isomer, unassigned)"
  pIC50: 5.54

I = O=C(O)[C@H]1[C@H](Cn2nnc3ccc(C(F)(F)F)cc3c2=O)CC[C@@H]1C(=O)c1ccc(OCc2ccccc2)cc1 (racemic)
II = COc1cccc(COc2ccc(C(=O)[C@@H]3CC[C@H](Cn4nnc5ccc(C)cc5c4=O)[C@H]3C(=O)O)cc2)c1 (single isomer, unassigned)
Challenge: Problem: Given the entries I and II , determine which has the lower reported pIC50. Please reply using the label of the selected record.
Response given: II
(II: 4.96, I: 5.42)

###

# TESTED_TARGET: human macrophage elastase (HME/hMMP-12) (Homo sapiens)
# Construct: 0.5 nM HME
# Sequence (P39900 106-470): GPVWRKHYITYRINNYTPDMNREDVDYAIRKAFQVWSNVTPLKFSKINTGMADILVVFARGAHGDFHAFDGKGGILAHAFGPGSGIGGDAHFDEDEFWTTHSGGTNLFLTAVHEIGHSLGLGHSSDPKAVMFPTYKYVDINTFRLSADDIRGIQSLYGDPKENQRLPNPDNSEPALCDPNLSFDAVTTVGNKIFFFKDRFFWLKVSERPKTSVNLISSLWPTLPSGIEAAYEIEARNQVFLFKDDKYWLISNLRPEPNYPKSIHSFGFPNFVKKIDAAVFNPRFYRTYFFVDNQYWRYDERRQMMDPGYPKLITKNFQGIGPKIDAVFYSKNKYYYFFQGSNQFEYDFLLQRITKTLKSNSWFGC
# TEST_NAME: In vitro HME inhibition test (standard or high-sensitivity)
# EXPERIMENTAL_CONTEXT: in some cases mean values
pIC50: −log10 of the molar value.
MEASUREMENT_KIND: pIC50

# count of solved cases: 8
- MOLECULE: "COc1cccc(COc2ccc(C(=O)[C@@H]3CC[C@H](Cn4nnc5ccc(C)cc5c4=O)[C@H]3C(=O)O)cc2)c1 (single isomer, unassigned) [Example 107]"
  MEASUREMENT_KIND: "pIC50"
  REPORTED: 10.46
- MOLECULE: "O=C(O)[C@@H]1[C@@H](Cn2nnc3ccc(C(F)(F)F)cc3c2=O)CC[C@H]1C(=O)c1ccc(OCc2ccc(Cl)cc2)cc1 (single isomer, unassigned) [Example 25]"
  MEASUREMENT_KIND: "pIC50"
  REPORTED: 10.89
- MOLECULE: "CCCCCCOc1ccc(C(=O)[C@H]2CC[C@@H](Cn3nnc4ccc(C(F)(F)F)cc4c3=O)[C@@H]2C(=O)O)cc1 (racemic) [Example 57]"
  MEASUREMENT_KIND: "pIC50"
  REPORTED: 10.55
- MOLECULE: "Cc1ccc2nnn(C[C@H]3CC[C@@H](C(=O)c4ccc(OCc5cccc(C(F)(F)F)c5)cc4)[C@@H]3C(=O)O)c(=O)c2c1 (single isomer, unassigned) [Example 101]"
  MEASUREMENT_KIND: "pIC50"
  REPORTED: 10.07
- MOLECULE: "CC(C)CCOc1ccc(C(=O)[C@@H]2CC[C@H](Cn3nnc4ccc(C(F)(F)F)cc4c3=O)[C@H]2C(=O)O)cc1 (single isomer, unassigned) [Example 61]"
  MEASUREMENT_KIND: "pIC50"
  REPORTED: 10.49
- MOLECULE: "Cc1cccc(COc2ccc(C(=O)[C@H]3CC[C@@H](Cn4nnc5ccc(C)cc5c4=O)[C@@H]3C(=O)O)cc2)c1 (racemic) [Example 97]"
  MEASUREMENT_KIND: "pIC50"
  REPORTED: 9.40
- MOLECULE: "CCCCOc1ccc(C(=O)[C@@H]2CC[C@H](Cn3nnc4ccc(C(F)(F)F)cc4c3=O)[C@H]2C(=O)O)cc1 (single isomer, unassigned) [Example 68]"
  MEASUREMENT_KIND: "pIC50"
  REPORTED: 8.68
- MOLECULE: "Cc1ccc2nnn(C[C@@H]3CC[C@H](C(=O)c4ccc(OCCc5ccccc5)cc4)[C@H]3C(=O)O)c(=O)c2c1 (racemic) [Example 112]"
  MEASUREMENT_KIND: "pIC50"
  REPORTED: 9.18

P = O=C(O)[C@@H]1[C@@H](Cn2nnc3ccc(C(F)(F)F)cc3c2=O)CC[C@H]1C(=O)c1ccc(OCc2ccc(F)cc2)cc1 (single isomer, unassigned) [Example 14]
Q = O=C(O)[C@H]1[C@H](Cn2nnc3ccc(C(F)(F)F)cc3c2=O)CC[C@@H]1C(=O)c1ccc(OCCC2CCCCC2)cc1 (racemic) [Example 50]
R = CCCCCOc1ccc(C(=O)[C@H]2CC[C@@H](Cn3nnc4ccccc4c3=O)[C@@H]2C(=O)O)cc1 (racemic) [Example 7]
Challenge: Ordering: ascending pIC50. Labels, ranked as asked.
Response given: P, R, Q

1 = Cc1ccc2nnn(C[C@@H]3CC[C@H](C(=O)c4ccc(OCc5cccc(OC(F)(F)F)c5)cc4)[C@H]3C(=O)O)c(=O)c2c1 (racemic) [Example 109]
2 = O=C(O)[C@@H]1[C@@H](Cn2nnc3ccc(C(F)(F)F)cc3c2=O)CC[C@H]1C(=O)c1ccc(OCCC2CCCC2)cc1 (single isomer, unassigned) [Example 54]
3 = CCCCCOc1ccc(C(=O)[C@@H]2CC[C@H](Cn3nnc4ccccc4c3=O)[C@H]2C(=O)O)cc1 (single isomer, unassigned) [Example 9]
Challenge: Ascending sort, pIC50. Present the labels in the sequence the task asks for.
Response given: 3, 2, 1
(3: 6.84, 2: 7.66, 1: 9.85)

###

Hi! I'm sharing some pIC50 results obtained with MMP-14 (Homo sapiens, UniProt P50281).
pIC50: −log10 of the molar value.
MEASUREMENT_KIND: pIC50

Solved entries (count: 4):
- COMPOUND: "Cc1ccc2nnn(C[C@H]3CC[C@@H](C(=O)c4ccc(OCC5CCCCC5)cc4)[C@@H]3C(=O)O)c(=O)c2c1 (single isomer, unassigned) [Example 117]"
  MEASUREMENT_KIND: "pIC50"
  REPORTED: 7.06
- COMPOUND: "CCCCCCOc1ccc(C(=O)[C@@H]2CC[C@H](Cn3nnc4ccc(C(F)(F)F)cc4c3=O)[C@H]2C(=O)O)cc1 (single isomer, unassigned) [Example 58]"
  MEASUREMENT_KIND: "pIC50"
  REPORTED: 5.89
- COMPOUND: "Cc1ccc2nnn(C[C@H]3CC[C@@H](C(=O)c4ccc(OCc5cccc(Cl)c5)cc4)[C@@H]3C(=O)O)c(=O)c2c1 (single isomer, unassigned) [Example 104]"
  MEASUREMENT_KIND: "pIC50"
  REPORTED: 6.64
- COMPOUND: "O=C(O)[C@H]1[C@H](Cn2nnc3ccc(C(F)(F)F)cc3c2=O)CC[C@@H]1C(=O)c1ccc(OCc2ccc(F)cc2)cc1 (racemic) [Example 12]"
  MEASUREMENT_KIND: "pIC50"
  REPORTED: 7.11

P = O=C(O)[C@H]1[C@H](Cn2nnc3ccc(C(F)(F)F)cc3c2=O)CC[C@@H]1C(=O)c1ccc(OCCCc2ccccc2)cc1 (racemic) [Example 39]
Q = CCCCCOc1ccc(C(=O)[C@H]2CC[C@@H](Cn3nnc4ccc(C)cc4c3=O)[C@@H]2C(=O)O)cc1 (racemic) [Example 123]
R = COc1cccc(COc2ccc(C(=O)[C@@H]3CC[C@H](Cn4nnc5ccc(C)cc5c4=O)[C@H]3C(=O)O)cc2)c1 (single isomer, unassigned) [Example 107]
S = O=C(O)[C@@H]1[C@@H](Cn2nnc3ccc(C(F)(F)F)cc3c2=O)CC[C@H]1C(=O)c1ccc(SCc2cccc(Cl)c2)cc1 (single isomer, unassigned) [Example 77]
T = O=C(O)[C@H]1[C@H](Cn2nnc3ccccc3c2=O)CC[C@@H]1C(=O)c1ccc(OCC2CCCC2)cc1 (racemic) [Example 4]
Challenge: Highest pIC50 first, then in falling order down to the smallest. Reply with the item labels sorted in the order that was asked for.
Response given: T, R, Q, S, P
